Test: solvent given as SMILES
Settings: in CC#N
Quick rule for you: emission maximum at 400 nm or higher means Y, lower means N.

[[record]]
compound = "C[n+]1cc2ccc3c[n+](C)c4ccccc4c3c2c2ccccc21"
classification = "Y"

[[record]]
compound = "CCn1c2ccccc2c2cc(/C=C/c3cccc[n+]3CCCS(=O)(=O)[O-])ccc21"
classification = "Y"


Form field: emission maximum at least 400 nm? Entry: "c1ccc2c(c1)c1ccccc1c1[nH]c(-c3ccc(-c4nc5c6ccccc6c6ccccc6c5[nH]4)cc3)nc21" Y

Next: NS(=O)(=O)c1ccc(N2N=C(c3ccc(O)cc3)CC2c2ccccc2)cc1 (stereo not given) Y

Next: "O=C1c2ccccc2-c2ccccc21" Y

Next: "Cc1cc(-n2c3ccccc3c3cc(C#N)ccc32)ccc1-c1ccc(S(=O)(=O)c2ccccc2)cc1C" N

Next: "Cc1ccc(-n2c3ccccc3c3cc(C=C(C#N)C#N)ccc32)cc1" Y
